Biological target: EGFRvIII expressed on cells (F98-npEGFRvIII, NCI-H522-EGFRvIII, U87-KO-EGFRvIII) (human)
Assay: flow cytometry, F98-EGFRvIII cells; 2nd Ab only 322
OBSERVABLE: MFI
Please respond with just the number, no unit label.

[
  {
    "BINDER": "30D8 (antibody, V domains shown) VH: EVQLVESGGGLVKPGGSLRLSCEASGFTFSDAWMSWVRQAPGKGLEWVGRIKSKTDGGTTDYVVPLNGRFIISRDDSRNTLYLQLNNLKTEDTAVYYCTTVPGSYGYWGQGTLVTVSS VL: DIVMTQSPLSLPVTPGEPASISCRSSQSLLHNKRNNYLDWFLQKPGQSPQLLIYLASNRASGVPDRFSGGGSGTDFTLKISRVEAEDVGVYYCMQAQQTPITFGQGTRLEIK",
    "RECORDED MEASUREMENT": 5160
  },
  {
    "BINDER": "34E7 (antibody, V domains shown) VH: EVNLVESGGGLVKPGGSLRLSCEASGFTFSYAWMSWVRQAPGKGLEWVGRIKSINDGGATDYASPVRNRFTISRDDSRNMLYLEMHSLKTEDTAVYYCTTIPGNDAFDMWGQGTLVTVSS VL: DIVLTQSPLSLSVTPGEPASISCRSTQSLLYSNGKNYLDWFLHKPGQSPQLLIFLGSIRASGVPDRFSGSGSGIDFILKISRVEAEDVGVYYCMQAQQTPITFGQGTRLEIK",
    "RECORDED MEASUREMENT": 4130
  }
]

Please look at the following binder next.
Enquiry: Which MFI value is on record for 26B9 (antibody, V domains shown) VH: EVQLVESWGVLVKPGGSLRLSCAASGFIFNNAWMSWVRQAPGKGLEWIGRIKSKSDGGTTDYAAPVKDRFTISRDDSKDTLYLQMNGLKTEDTAVYFCTTAPGGPFDYWGQGTLVTVSS VL: DIVLTQSPLSLPVTPGEPASISCRSSQSLLHRDGFNYLDWFLQKPGQSPQLLIYLASSRASGVPDRFSGSDSGTDFTLKISRVEAEDVGVYYCMQALQTPITFGQGTRLEIK ?
Return: 5400
